These measurements were taken from patent US20230257396A1.

Target: kinases (Homo sapiens, UniProt P07949)
Construct: purchased Eurofins/DiscoveRx; host or cells: E. coli BL21-derived host (T7 phage display) for most kinases; HEK-293 for the rest
Sequence (P07949 29-1114): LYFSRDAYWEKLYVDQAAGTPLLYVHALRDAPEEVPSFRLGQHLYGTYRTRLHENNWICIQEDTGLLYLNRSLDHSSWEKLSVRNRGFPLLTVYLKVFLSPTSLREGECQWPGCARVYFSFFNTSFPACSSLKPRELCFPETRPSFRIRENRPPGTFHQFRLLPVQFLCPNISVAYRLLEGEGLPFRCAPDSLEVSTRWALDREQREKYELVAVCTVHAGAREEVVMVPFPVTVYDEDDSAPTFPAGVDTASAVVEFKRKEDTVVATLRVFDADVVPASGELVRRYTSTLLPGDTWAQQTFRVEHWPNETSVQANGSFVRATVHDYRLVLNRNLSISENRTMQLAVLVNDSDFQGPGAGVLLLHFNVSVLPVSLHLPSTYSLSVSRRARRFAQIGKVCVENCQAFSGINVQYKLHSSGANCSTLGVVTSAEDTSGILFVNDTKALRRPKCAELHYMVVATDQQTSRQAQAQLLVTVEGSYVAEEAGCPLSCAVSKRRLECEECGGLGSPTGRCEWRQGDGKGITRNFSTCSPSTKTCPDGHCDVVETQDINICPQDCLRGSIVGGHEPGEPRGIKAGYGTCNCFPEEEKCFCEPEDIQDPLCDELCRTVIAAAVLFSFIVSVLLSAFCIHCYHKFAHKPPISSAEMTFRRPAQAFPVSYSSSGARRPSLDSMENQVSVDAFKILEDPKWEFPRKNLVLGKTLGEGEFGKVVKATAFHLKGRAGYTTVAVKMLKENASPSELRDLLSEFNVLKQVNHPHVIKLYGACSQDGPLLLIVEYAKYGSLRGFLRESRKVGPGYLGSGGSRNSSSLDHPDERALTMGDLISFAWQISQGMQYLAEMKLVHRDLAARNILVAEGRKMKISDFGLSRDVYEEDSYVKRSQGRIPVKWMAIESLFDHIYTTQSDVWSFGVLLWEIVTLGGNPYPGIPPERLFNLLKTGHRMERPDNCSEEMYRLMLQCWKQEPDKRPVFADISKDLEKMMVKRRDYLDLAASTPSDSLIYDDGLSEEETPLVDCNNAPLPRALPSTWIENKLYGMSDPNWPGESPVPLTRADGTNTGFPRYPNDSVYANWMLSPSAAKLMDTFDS
Test: KINOMEscan kinase binding assay (Eurofins/DiscoveRx), % Ctrl
Details: 1 μM; RET
quantity name: % Ctrl, RET (% Ctrl)

{"chemical smiles": "Cc1cc2c([nH]1)/C=C1\\C(=O)Nc3cc(Cl)c(cc31)OCCOCCN(C)C2=O", "quantity name": "% Ctrl, RET", "unit tag": "% Ctrl", "measured": 0}
{"chemical smiles": "Cc1cc2c([nH]1)/C=C1\\C(=O)Nc3cc(Cl)c(cc31)OCCO[C@@H](C(=O)N(C)C)CN(C)C2=O", "quantity name": "% Ctrl, RET", "unit tag": "% Ctrl", "measured": 8}
{"chemical smiles": "Cc1cc2c([nH]1)/C=C1\\C(=O)Nc3ccc(cc31)CN(C)C(=O)COCCNC2=O", "quantity name": "% Ctrl, RET", "unit tag": "% Ctrl", "measured": 94}

A: Cc1cc2c([nH]1)/C=C1\C(=O)Nc3cnc(nc31)N(C)CCCOCCN(C)C2=O
B: Cc1cc2c([nH]1)/C=C1\C(=O)Nc3cc(Cl)c(cc31)OCCO[C@@H](C(=O)NC1CNC1)CN(C)C2=O
Form: Entry with minimum % Ctrl, RET (choose one): A / B Return value: the label identifying the chosen record.
B
(B: 24 % Ctrl, A: 96 % Ctrl)

1: Cc1cc2c([nH]1)/C=C1\C(=O)Nc3ccc(cc31)-c1c(C)n[nH]c1CNCCN(C)C2=O
2: Cc1cc2c([nH]1)/C=C1\C(=O)Nc3ccc(cc31)-c1cnn(C)c1COCCN(C)C2=O
3: CNC(=O)[C@H]1CN(C)C(=O)c2cc(C)[nH]c2/C=C2\C(=O)Nc3cc(Cl)c(cc32)OCCO1
4: Cc1cc2c([nH]1)/C=C1\C(=O)Nc3ccc(cc31)-c1c(noc1C)COCCN(C)C2=O
I would appreciate it if you could sort these 4 molecules by % Ctrl, RET, starting from the smallest number. // rank by listing labels in the order requested
2, 1, 3, 4
(2: 0 % Ctrl, 1: 2 % Ctrl, 3: 33 % Ctrl, 4: 83 % Ctrl)

A: Cc1cc2c([nH]1)/C=C1\C(=O)Nc3ccc(cc31)-c1ccnn1CCNCCNC2=O
B: Cc1cc2c([nH]1)/C=C1\C(=O)Nc3cc(Cl)c(cc31)OCCO[C@@H](C(=O)N[C@@H]1CCNC1)CN(C)C2=O
Which record would sort first by descending % Ctrl, RET, A or B ? Lab log: write the label of the selected item as the result.
A

====

Target: kinases (Homo sapiens, UniProt P36888, K663Q)
Construct: purchased Eurofins/DiscoveRx; host or cells: E. coli BL21-derived host (T7 phage display) for most kinases; HEK-293 for the rest
Assay: KINOMEscan kinase binding assay (Eurofins/DiscoveRx), % Ctrl
Settings: 1 μM; target FLT3(K663Q)
quantity name: % Ctrl, FLT3(K663Q) (% Ctrl)

{"molecule": "Cc1cc2c([nH]1)/C=C1\\C(=O)Nc3cc(Cl)c(cc31)SCCOCCN(C)C2=O [Ex. 169]", "measured": 2.7}

P: Cc1cc2c([nH]1)/C=C1\C(=O)Nc3ccc(cc31)-c1cnn(C)c1OCCCN(C)C2=O [Ex. 166]
Q: Cc1cc2c([nH]1)/C=C1\C(=O)Nc3cnc(cc31)-c1cnn(C)c1CN(C)CCN(C)C2=O [Ex. 172]
Select the item with the higher value of % Ctrl, FLT3(K663Q) from the options P and Q listed. // return label of chosen record
P

I: CN1CCOc2cc3c(cc2Cl)NC(=O)/C3=C\c2[nH]ccc2C(=O)N(C)CC1 [Ex. 164]
II: Cc1cc2c([nH]1)/C=C1\C(=O)Nc3ccc(cc31)-c1c(noc1C(C)C)COCCN(C)C2=O [Ex. 161]
Consider entries I and II . Which has the numerically lower % Ctrl, FLT3(K663Q)? Write down the label of the entry you select.
I
(I: 1.4 % Ctrl, II: 54 % Ctrl)

====

Target: kinases (Homo sapiens, UniProt P00519, H396P)
Construct: purchased Eurofins/DiscoveRx; host or cells: E. coli BL21-derived host (T7 phage display) for most kinases; HEK-293 for the rest
Experiment: KINOMEscan kinase binding assay (Eurofins/DiscoveRx), % Ctrl
Conditions: 1 μM; target ABL1(H396P)-phosphorylated
quantity name: % Ctrl, ABL1(H396P)-phosphorylated (% Ctrl)

{"chemical smiles": "Cc1cc2c([nH]1)/C=C1\\C(=O)Nc3ccc(cc31)-c1cnn(C)c1OCCCN(C)C2=O", "% Ctrl, ABL1(H396P)-phosphorylated (% Ctrl)": 4.3}
{"chemical smiles": "CN1CCOc2cc3c(cc2Cl)NC(=O)/C3=C\\c2[nH]ccc2C(=O)N(C)CC1", "% Ctrl, ABL1(H396P)-phosphorylated (% Ctrl)": 0}
{"chemical smiles": "Cc1cc2c([nH]1)/C=C1\\C(=O)Nc3cc(Cl)c(cc31)SCCOCCN(C)C2=O", "% Ctrl, ABL1(H396P)-phosphorylated (% Ctrl)": 0}

A: Cc1cc2c([nH]1)/C=C1\C(=O)Nc3ccc(cc31)-c1c(noc1C(C)C)COCCN(C)C2=O
B: Cc1cc2c([nH]1)/C=C1\C(=O)Nc3cnc(cc31)-c1cnn(C)c1CN(C)CCN(C)C2=O
Please tell me which of the two, A or B , has the higher reported % Ctrl, ABL1(H396P)-phosphorylated value. # respond with the chosen item's label
A

====

Biological target: kinases (Homo sapiens, UniProt P00533, L861Q)
Construct: purchased Eurofins/DiscoveRx; host or cells: E. coli BL21-derived host (T7 phage display) for most kinases; HEK-293 for the rest
Experiment: KINOMEscan kinase binding assay (Eurofins/DiscoveRx), % Ctrl
Conditions: 1 μM; EGFR(L861Q)
Procedure: Kinase binding assays were performed at Eurofins/DiscoveRx using the general KINOMEscan Protocol (Fabian, M. A. et al., “A small molecule-kinase interaction map for clinical kinase inhibitors,” Nat. Biotechnol. 2005, 23(3):329-36). For most assays, kinase-tagged T7 phage strains were prepared in an E. coli host derived from the BL21 strain. […] The kinase concentration in the eluates was measured by qPCR. […]
quantity name: % Ctrl, EGFR(L861Q) (% Ctrl)

{"compound": "Cc1cc2c([nH]1)/C=C1\\C(=O)Nc3ccc(cc31)-c1cnn(C)c1COCCN(C)C2=O [Ex. 124]", "unit tag": "% Ctrl", "% Ctrl, EGFR(L861Q)": 81}
{"compound": "CNC(=O)[C@H]1CN(C)C(=O)c2cc(C)[nH]c2/C=C2\\C(=O)Nc3cc(Cl)c(cc32)OCCO1 [Ex. 135]", "unit tag": "% Ctrl", "% Ctrl, EGFR(L861Q)": 86}
{"compound": "Cc1cc2c([nH]1)/C=C1\\C(=O)Nc3ccc(cc31)-c1cnn(C)c1CNCCN(C)C2=O [Ex. 125]", "unit tag": "% Ctrl", "% Ctrl, EGFR(L861Q)": 77}
{"compound": "Cc1cc2c([nH]1)/C=C1\\C(=O)Nc3ccc(cc31)OCCOCCN(C)C2=O [Ex.91]", "unit tag": "% Ctrl", "% Ctrl, EGFR(L861Q)": 66}
{"compound": "Cc1cc2c([nH]1)/C=C1\\C(=O)Nc3ccc(cc31)-c1ccnn1CCNCCNC2=O [Ex. 43]", "unit tag": "% Ctrl", "% Ctrl, EGFR(L861Q)": 90}
{"compound": "Cc1cc2c([nH]1)/C=C1\\C(=O)Nc3ccc(cc31)OCCOCCNC2=O [Ex. 129]", "unit tag": "% Ctrl", "% Ctrl, EGFR(L861Q)": 81}
{"compound": "Cc1cc2c([nH]1)/C=C1\\C(=O)Nc3ccc(cc31)-c1c(noc1C)COCCN(C)C2=O [Ex. 128]", "unit tag": "% Ctrl", "% Ctrl, EGFR(L861Q)": 100}
{"compound": "Cc1cc2c([nH]1)/C=C1\\C(=O)Nc3ccc(cc31)-c1ccnn1CCOCCN(C)C2=O [Ex. 41]", "unit tag": "% Ctrl", "% Ctrl, EGFR(L861Q)": 91}

====

Molecular target: kinases (Homo sapiens, UniProt P42684)
Construct: purchased Eurofins/DiscoveRx; host or cells: E. coli BL21-derived host (T7 phage display) for most kinases; HEK-293 for the rest
Sequence (P42684 whole entry): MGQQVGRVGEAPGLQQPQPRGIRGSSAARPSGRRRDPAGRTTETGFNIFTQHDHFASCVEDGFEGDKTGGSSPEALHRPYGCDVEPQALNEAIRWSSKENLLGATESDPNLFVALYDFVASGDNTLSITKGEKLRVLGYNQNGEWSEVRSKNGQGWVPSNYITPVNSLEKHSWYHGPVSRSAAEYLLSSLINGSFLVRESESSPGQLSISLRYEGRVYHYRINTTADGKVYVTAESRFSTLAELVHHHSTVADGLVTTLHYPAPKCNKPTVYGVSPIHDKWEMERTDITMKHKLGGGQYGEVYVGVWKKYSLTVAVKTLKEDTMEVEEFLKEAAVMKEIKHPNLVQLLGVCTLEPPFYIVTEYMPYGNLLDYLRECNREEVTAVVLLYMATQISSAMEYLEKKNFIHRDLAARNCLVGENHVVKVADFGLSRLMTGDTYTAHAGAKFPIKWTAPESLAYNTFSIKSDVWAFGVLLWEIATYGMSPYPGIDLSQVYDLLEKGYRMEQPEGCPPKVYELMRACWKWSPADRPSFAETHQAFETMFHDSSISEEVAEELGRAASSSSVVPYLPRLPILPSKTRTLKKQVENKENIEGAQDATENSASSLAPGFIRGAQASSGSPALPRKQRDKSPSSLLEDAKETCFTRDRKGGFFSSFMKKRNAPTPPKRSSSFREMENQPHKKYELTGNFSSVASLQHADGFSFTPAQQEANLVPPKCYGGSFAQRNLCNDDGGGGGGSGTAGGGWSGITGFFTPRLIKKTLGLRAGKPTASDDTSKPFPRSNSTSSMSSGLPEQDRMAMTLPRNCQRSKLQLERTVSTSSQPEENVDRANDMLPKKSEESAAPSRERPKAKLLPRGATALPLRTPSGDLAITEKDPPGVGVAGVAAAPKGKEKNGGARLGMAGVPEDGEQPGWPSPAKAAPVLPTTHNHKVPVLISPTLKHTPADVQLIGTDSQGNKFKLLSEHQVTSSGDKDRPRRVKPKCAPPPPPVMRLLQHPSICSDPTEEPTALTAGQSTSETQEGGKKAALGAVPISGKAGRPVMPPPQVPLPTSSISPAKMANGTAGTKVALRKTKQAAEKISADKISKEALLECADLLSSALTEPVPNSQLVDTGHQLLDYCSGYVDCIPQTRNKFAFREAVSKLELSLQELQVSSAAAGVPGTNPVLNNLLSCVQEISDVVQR
Assay: KINOMEscan kinase binding assay (Eurofins/DiscoveRx), % Ctrl
Conditions: 1 μM; target ABL2
quantity name: % Ctrl, ABL2 (% Ctrl)

I: CN1CCOc2cc3c(cc2Cl)NC(=O)/C3=C\c2[nH]ccc2C(=O)N(C)CC1 [Ex. 164]
II: Cc1cc2c([nH]1)/C=C1\C(=O)Nc3cc(Cl)c(cc31)SCCOCCN(C)C2=O [Ex. 169]
III: Cc1cc2c([nH]1)/C=C1\C(=O)Nc3ccc(cc31)-c1cnn(C)c1OCCCN(C)C2=O [Ex. 166]
IV: Cc1cc2c([nH]1)/C=C1\C(=O)Nc3ccc(cc31)-c1c(noc1C(C)C)COCCN(C)C2=O [Ex. 161]
V: Cc1cc2c([nH]1)/C=C1\C(=O)Nc3cnc(cc31)-c1cnn(C)c1CN(C)CCN(C)C2=O [Ex. 172]
Which order do the items above take when sorted by % Ctrl, ABL2 from high to low? Provide your answer as the labels ordered per the instruction.
IV, III, V, I, II
